GI50 values for the compounds below.
tested on: SF-295; experiment: NCI tumour cell line growth inhibition, 48 h
Active and inactive are the calls of the source. No stated cut-off is given here; in the data, active = GI50 up to about 1.1 µM and inactive = higher.

Would you please look over these solved cases?
query: // lookup GI50 for O=c1[nH]nc(Cc2ccccc2)n1/N=C/c1ccc(/C=N/n2c(Cc3ccccc3)n[nH]c2=O)cc1
result: 77.3 µM (inactive)

query: Then this compound: C=C1c2cc3c(cc2CC12Cc1cc4c(cc1C2=O)CCC4)CCC3 (centres undefined)
result: > 100 µM (inactive)

query: Then this compound: Cc1ccc(C)c(COCCOCn2cc(Br)c(N)nc2=O)c1
result: > 100 µM (inactive)

query: Then this compound: CSc1nc(C#N)c(N)n1C
result: > 100 µM (inactive)

query: Then this compound: CC(C)C1N2CCCCC2[C@@H]2c3[nH]c4ccccc4c3CCN12 (some centres undefined)
result: > 100 µM (inactive)

Others:
query: // lookup GI50 for COc1cc(Cl)c2c3c(c(C(C)=O)oc13)CCC2
result: > 100 µM (inactive)

query: Then this compound: CC[C@@H](C(=O)[C@@H](C)[C@@H](O)[C@H](C)CCc1ccc(C)c(O)c1C(=O)O)[C@H]1O[C@](CC)([C@H]2CC[C@](O)(CC)[C@H](C)O2)C[C@@H]1C [LASALOCID A SODIUM]
result: 1.56 µM (inactive)

query: Then this compound: O=[N+]([O-])/C(C(Cl)=C(Cl)Cl)=C1\Nc2ccc([N+](=O)[O-])cc2N1
result: > 100 µM (inactive)

query: Then this compound: Nc1n[n+]([O-])c2ccccc2[n+]1[O-]
result: > 100 µM (inactive)
